- Test system: TRF1 (Mus musculus)
- Construct: endogenous in cells; host or cells: CHA9.3 primary murine lung cancer cell line
- Protocol notes: Measurement of TRF1 levels at telomere by immunofluorescence
- Format: cell-based
- Test context: CHA9.3 cells (primary murine lung cancer cell line), compound at 10 µM, 24 hours, duplicates
- Protocol: Assay was performed in CHA9.3, a primary murine cell line derived from a lung cancer. (Garcia-Beccaria et al., 2015). Cells were grown in DMEM (Gibco) supplemented with 10% FBS (fetal bovine serum), 1% penicillin/estreptomicen (Someglas 100U/ml) and 0.5% Amphotericin B (Gibco). […] Cells were seeded in 10000 cells per 150 µl per well into black 96-well plates (Falcon) and incubated for 16 h at 37°C, 5% CO2. […] After 24 hours, relative levels of TRF1 at telomeres were quantified by immunofluorescence. […]
Entries and their inhibition at 10 µM values follow.
Observable: inhibition at 10 µM (%)

[[record]]
compound = "C#Cc1cnc(Nc2nc([C@@H](N)Cc3ccccc3)cs2)nc1 [Compound 64]"
test_system = "TRF1 (Mus musculus)"
observable = "inhibition at 10 µM"
experimental_result = 6.41

[[record]]
compound = "NC(Cc1cccc(O)c1)c1csc(Nc2ncccn2)n1 (stereo not shown) [Compound 105]"
test_system = "TRF1 (Mus musculus)"
observable = "inhibition at 10 µM"
experimental_result = 29.5

[[record]]
compound = "NC(Cc1cccc(Br)c1)c1csc(Nc2ncccn2)n1 (racemic) [Compound 5]"
test_system = "TRF1 (Mus musculus)"
observable = "inhibition at 10 µM"
experimental_result = 29.8

[[record]]
compound = "C#CCOc1cccc(-c2sc(Nc3ncccn3)nc2[C@H](N)Cc2ccccc2)c1 [Compound 123]"
test_system = "TRF1 (Mus musculus)"
observable = "inhibition at 10 µM"
experimental_result = 10.9


###

- Test system: TRF1 (Mus musculus, UniProt P70371)
- Construct: endogenous in cells; host or cells: CHA9.3 primary murine lung cancer cell line
- Protocol notes: Measurement of TRF1 levels at telomere by immunofluorescence
- Format: cell-based
- Test context: CHA9.3 cells (primary murine lung cancer cell line), compound at 10 µM, 24 hours, duplicates
Observable: inhibition at 10 µM (%)

[[record]]
molecule = "C#CCCC(=O)Nc1cnc(Nc2nc(C(N)Cc3ccc(F)cc3)cs2)nc1 (stereo not drawn) [Compound 74]"
unit_annotation = "%"
experimental_result = 15.5

[[record]]
molecule = "N[C@@H](Cc1ccccc1)c1nc(Nc2ncccn2)sc1Br [Compound 88]"
unit_annotation = "%"
experimental_result = 29.9

[[record]]
molecule = "N[C@@H](Cc1ccccc1)c1csc(Nc2ncc(Br)cn2)n1 [Compound 34]"
unit_annotation = "%"
experimental_result = 21

[[record]]
molecule = "CC(=O)Nc1cccc(-c2sc(Nc3ncccn3)nc2C(N)Cc2ccccc2)c1 (stereo not drawn) [Compound 83]"
unit_annotation = "%"
experimental_result = 17.2

[[record]]
molecule = "Nc1ccc(CC(N)c2csc(Nc3ncccn3)n2)cc1 (stereo not drawn) [Compound 52]"
unit_annotation = "%"
experimental_result = 10.5

[[record]]
molecule = "C#CCOc1cccc(CC(N)c2csc(Nc3ncccn3)n2)c1 (single isomer, unassigned) [Compound 18]"
unit_annotation = "%"
experimental_result = 33.8

[[record]]
molecule = "C#CCOc1cccc(C[C@H](N)c2csc(Nc3ncccn3)n2)c1 [Compound 19]"
unit_annotation = "%"
experimental_result = 27.5

[[record]]
molecule = "Cc1ccnc(Nc2nc([C@@H](N)Cc3ccccc3)cs2)n1 [Compound 33]"
unit_annotation = "%"
experimental_result = 30

[[record]]
molecule = "NC(Cc1cccc(Br)c1)c1csc(Nc2ncccn2)n1 (single isomer, unassigned) [Compound 6]"
unit_annotation = "%"
experimental_result = 28.3

[[record]]
molecule = "NC(Cc1ccc(Br)cc1)c1csc(Nc2ncccn2)n1 (racemic) [Compound 8]"
unit_annotation = "%"
experimental_result = 32.4

[[record]]
molecule = "C#CCOc1cccc(-c2sc(Nc3ncccn3)nc2[C@@H](N)Cc2ccccc2)c1 [Compound 122]"
unit_annotation = "%"
experimental_result = 5.33

[[record]]
molecule = "NC(Cc1ccccc1Br)c1csc(Nc2ncccn2)n1 (racemic) [Compound 2]"
unit_annotation = "%"
experimental_result = 29.8

[[record]]
molecule = "C#Cc1ccc(C[C@@H](N)c2csc(Nc3ncccn3)n2)cc1 [Compound 68]"
unit_annotation = "%"
experimental_result = 31.2

[[record]]
molecule = "C#CCOc1cccc(CC(N)c2csc(Nc3ncccn3)n2)c1 (racemic) [Compound 17]"
unit_annotation = "%"
experimental_result = 31.6

[[record]]
molecule = "Nc1cccc(-c2sc(Nc3ncccn3)nc2C(N)Cc2ccccc2Br)c1 (stereo not drawn) [Compound 78]"
unit_annotation = "%"
experimental_result = 27.8

[[record]]
molecule = "C#Cc1cnc(Nc2nc([C@H](N)Cc3ccccc3)cs2)nc1 [Compound 63]"
unit_annotation = "%"
experimental_result = 11.7

[[record]]
molecule = "C#Cc1cccc(C[C@H](N)c2csc(Nc3ncccn3)n2)c1 [Compound 61]"
unit_annotation = "%"
experimental_result = 30.5

[[record]]
molecule = "C#Cc1cccc(-c2sc(Nc3ncccn3)nc2C(N)Cc2ccccc2)c1 (stereo not drawn) [Compound 81]"
unit_annotation = "%"
experimental_result = 19.7


###

# maps each entry to its inhibition at 10 µM
- Test system: TRF1 (Mus musculus)
- Construct: endogenous in cells; host or cells: CHA9.3 primary murine lung cancer cell line
- Sequence (P70371 1-421): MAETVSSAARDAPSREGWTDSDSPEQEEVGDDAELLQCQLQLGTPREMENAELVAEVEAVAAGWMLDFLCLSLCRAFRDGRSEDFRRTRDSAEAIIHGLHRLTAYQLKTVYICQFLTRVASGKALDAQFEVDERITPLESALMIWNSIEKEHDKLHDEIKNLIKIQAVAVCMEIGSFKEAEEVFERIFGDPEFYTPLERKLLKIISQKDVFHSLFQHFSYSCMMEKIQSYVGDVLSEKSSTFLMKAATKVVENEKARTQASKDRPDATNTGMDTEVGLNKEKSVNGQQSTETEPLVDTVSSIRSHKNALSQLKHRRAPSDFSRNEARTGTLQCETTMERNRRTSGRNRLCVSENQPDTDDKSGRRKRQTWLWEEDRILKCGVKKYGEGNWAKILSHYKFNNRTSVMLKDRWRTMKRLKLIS
- Protocol notes: Measurement of TRF1 levels at telomere by immunofluorescence
- Assay type: cell-based
- Test context: CHA9.3 cells (primary murine lung cancer cell line), compound at 10 µM, 24 hours, duplicates
Observable: inhibition at 10 µM (%)

[[record]]
molecule = "NC(Cc1ccccc1Br)c1csc(Nc2ncccn2)n1 (single isomer, unassigned) [Compound 3]"
test_system = "TRF1 (Mus musculus)"
experimental_result = 25.4

[[record]]
molecule = "C#Cc1cccc(CC(N)c2csc(Nc3ncccn3)n2)c1 (racemic)"
test_system = "TRF1 (Mus musculus)"
experimental_result = 27.1

[[record]]
molecule = "NC(Cc1cccc(Cl)c1)c1csc(Nc2ncccn2)n1 (racemic)"
test_system = "TRF1 (Mus musculus)"
experimental_result = 27.9

[[record]]
molecule = "C#CCCCCOc1ccc(CC(N)c2csc(Nc3ncccn3)n2)cc1 (racemic)"
test_system = "TRF1 (Mus musculus)"
experimental_result = 0

[[record]]
molecule = "C#Cc1ccc(C[C@H](N)c2csc(Nc3ncccn3)n2)cc1"
test_system = "TRF1 (Mus musculus)"
experimental_result = 7.7

[[record]]
molecule = "Cc1cnc(Nc2nc([C@@H](N)Cc3ccccc3)cs2)nc1"
test_system = "TRF1 (Mus musculus)"
experimental_result = 18.4

[[record]]
molecule = "C#CCOc1ccc(CC(N)c2csc(Nc3ncccn3)n2)cc1 (racemic)"
test_system = "TRF1 (Mus musculus)"
experimental_result = 19.4

[[record]]
molecule = "COc1cc(C)nc(Nc2nc([C@@H](N)Cc3ccccc3)cs2)n1"
test_system = "TRF1 (Mus musculus)"
experimental_result = 9.77

[[record]]
molecule = "COCCOc1cccc(-c2sc(Nc3ncccn3)nc2[C@@H](N)Cc2ccccc2)c1"
test_system = "TRF1 (Mus musculus)"
experimental_result = 16.3

[[record]]
molecule = "C#Cc1cccc(C[C@@H](N)c2csc(Nc3ncccn3)n2)c1"
test_system = "TRF1 (Mus musculus)"
experimental_result = 24.8

[[record]]
molecule = "NC(Cc1ccc([N+](=O)[O-])cc1)c1csc(Nc2ncccn2)n1 (racemic)"
test_system = "TRF1 (Mus musculus)"
experimental_result = 0

[[record]]
molecule = "C#CCOc1cccc(-c2sc(Nc3ncccn3)nc2C(N)Cc2ccccc2)c1 (racemic)"
test_system = "TRF1 (Mus musculus)"
experimental_result = 17.5

[[record]]
molecule = "N[C@@H](Cc1ccccc1)c1nc(Nc2ncccn2)sc1-c1cccc(O)c1"
test_system = "TRF1 (Mus musculus)"
experimental_result = 23

[[record]]
molecule = "NC(Cc1ccc(O)cc1)c1csc(Nc2ncccn2)n1 (stereo not drawn)"
test_system = "TRF1 (Mus musculus)"
experimental_result = 20

[[record]]
molecule = "NC(Cc1ccccc1)c1csc(Nc2ncccn2)n1 (racemic)"
test_system = "TRF1 (Mus musculus)"
experimental_result = 27.3

[[record]]
molecule = "C#Cc1cnc(Nc2nc(C(N)Cc3ccccc3)cs2)nc1 (racemic)"
test_system = "TRF1 (Mus musculus)"
experimental_result = 11.4

[[record]]
molecule = "C#Cc1ccc(CC(N)c2csc(Nc3ncccn3)n2)cc1 (racemic)"
test_system = "TRF1 (Mus musculus)"
experimental_result = 18.1

[[record]]
molecule = "N[C@@H](Cc1ccccc1)c1csc(Nc2ccccn2)n1"
test_system = "TRF1 (Mus musculus)"
experimental_result = 20.5

